molecular target: δ opioid receptors (Rattus norvegicus, UniProt P33533); assay: Opiate Binding Assay, displacement of 3[H]-DSLET from δ receptors; details: ratio of mean IC50 values for μ and δ; above 1.0 = more δ specific
Sequence (P33533 whole entry): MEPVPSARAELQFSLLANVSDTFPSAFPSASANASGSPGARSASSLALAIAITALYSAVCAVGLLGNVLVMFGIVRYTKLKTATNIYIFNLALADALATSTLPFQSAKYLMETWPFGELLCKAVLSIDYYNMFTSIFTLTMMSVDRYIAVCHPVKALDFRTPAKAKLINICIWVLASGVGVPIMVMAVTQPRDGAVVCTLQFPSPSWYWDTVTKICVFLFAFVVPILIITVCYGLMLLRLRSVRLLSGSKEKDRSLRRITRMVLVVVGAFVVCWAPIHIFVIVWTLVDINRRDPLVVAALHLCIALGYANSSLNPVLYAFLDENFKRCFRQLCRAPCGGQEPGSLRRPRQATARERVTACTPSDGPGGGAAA
Structures can show the parent of a compound that is named as a salt.
testReadout: Mean IC50 μ/δ Ratio
Please reply with the value in numeric form only.

Use these answered entries as a reference point.
{"compound": "CC(=O)N[C@@H](Cc1ccccc1)C(=O)NC(C)(C)CNC(=O)[C@@H](N)Cc1c(C)cc(O)cc1C [Example 39, monohydrochloride]", "reported": 0.6}
{"compound": "CC(=O)N[C@@H](Cc1ccc(F)cc1)C(=O)NCC(C)(C)NC(=O)[C@@H](N)Cc1c(C)cc(O)cc1C [Example 6, monohydrochloride]", "reported": 0.6}

Attention now shifts to the item below.
Request: Return value of Mean IC50 μ/δ Ratio for input Cc1cc(O)cc(C)c1C[C@H](NC(=O)OC(C)(C)C)C(=O)NCCNC(=O)[C@@H](N)Cc1ccccc1 , no commentary.
Response: 10

* * *

Consider the following compounds and their measured pIC50 readings.
molecular target: μ opioid receptors (Rattus norvegicus, UniProt P33535); assay: Opiate Binding Assay, displacement of 3[H]-DAMPGO from μ receptors
Sequence (P33535 whole entry): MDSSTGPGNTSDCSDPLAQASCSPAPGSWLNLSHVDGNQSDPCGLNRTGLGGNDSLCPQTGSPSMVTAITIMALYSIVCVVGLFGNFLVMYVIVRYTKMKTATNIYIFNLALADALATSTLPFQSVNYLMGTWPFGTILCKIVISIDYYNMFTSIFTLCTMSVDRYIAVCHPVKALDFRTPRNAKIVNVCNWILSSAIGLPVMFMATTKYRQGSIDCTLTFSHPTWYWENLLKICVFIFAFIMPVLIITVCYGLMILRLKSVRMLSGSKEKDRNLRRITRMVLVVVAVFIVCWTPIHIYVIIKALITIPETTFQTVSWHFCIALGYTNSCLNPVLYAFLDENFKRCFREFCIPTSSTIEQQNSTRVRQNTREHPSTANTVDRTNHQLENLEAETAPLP
Where a name gives a salt, the structure may show the parent alone.
Schema: pIC50 number; meaning minus log10 of the concentration expressed in molar units.

Consider the worked cases shown below.
{"compound": "Cc1cc(O)cc(C)c1C[C@H](N)C(=O)NC(C)(C)CNC(=O)[C@H](Cc1ccccc1)NC(=O)C(F)(F)F [Example 14, hydrochloride]", "reported": 9.27}
{"compound": "CC(=O)N[C@@H](Cc1ccccc1)C(=O)NCC(C)(C)NC(=O)[C@H](N)Cc1c(C)cc(O)c(C)c1C [Example 41, monohydrochloride]", "reported": 6.91}

Let us move to another entry and its pIC50.
Request: Kindly indicate its recorded pIC50. Item: CC(=O)N[C@@H](CCc1ccccc1)C(=O)NCC(C)(C)NC(=O)[C@@H](N)Cc1c(C)cc(O)cc1C [Example 18, hydrochloride]
Response: 9.48

* * *

target: μ opioid receptors (Rattus norvegicus, UniProt P33535); assay: Opiate Binding Assay, displacement of 3[H]-DAMPGO from μ receptors
Structures can show the parent of a compound that is named as a salt.
Threshold check on IC50: strictly below 0.6 nM is 1.0; on or above 0.6 nM is 0.0.

Request: Field: below-cutoff. Rule: recorded IC50 strictly less than 0.6 nM. Subject: CC(=O)N[C@@H](Cc1ccccc1)C(=O)NCCNC(=O)[C@@H](N)Cc1c(C)cc(O)cc1C [Example 48, hydrochloride]
Response: 1.0

Request: Hello, I'm reviewing records and need to know if IC50 of Cc1cc(O)cc(C)c1C[C@H](N)C(=O)NCC(C)(C)NC(=O)[C@H](Cc1ccccc1)NC(=O)OCc1ccccc1 [Example 26, monohydrochloride] is below 0.6 nM. Could you check?
Response: 0.0

* * *

target: δ opioid receptors (Rattus norvegicus); assay: Opiate Binding Assay, displacement of 3[H]-DSLET from δ receptors
Structures can show the parent of a compound that is named as a salt.
testReadout: IC50

For orientation, consider the following solved cases.
{"compound": "Cc1cc(O)cc(C)c1C[C@H](N)C(=O)NC(C)(C)CNC(=O)[C@@H](N)Cc1ccccc1 [Example 12, dihydrochloride]", "testedSystem": "δ opioid receptors (Rattus norvegicus)", "testReadout": "IC50", "reported": "31.4 nM"}
{"compound": "CC(=O)N[C@@H](Cc1c(C)cccc1C)C(=O)NCCNC(=O)[C@@H](N)Cc1c(C)cc(O)cc1C [Example 52, hydrochloride]", "testedSystem": "δ opioid receptors (Rattus norvegicus)", "testReadout": "IC50", "reported": "32 nM"}
{"compound": "CC(=O)N[C@@H](Cc1ccccc1)C(=O)Nc1cccc(NC(=O)[C@@H](N)Cc2c(C)cc(O)cc2C)c1 [Example 57, hydrochloride]", "testedSystem": "δ opioid receptors (Rattus norvegicus)", "testReadout": "IC50", "reported": "100 nM"}
{"compound": "Cc1cc(O)cc(C)c1C[C@H](N)C(=O)NC(C)(C)CNC(=O)[C@H](Cc1ccc(F)cc1)NC(=O)OCc1ccccc1 [Example 8, monohydrochloride]", "testedSystem": "δ opioid receptors (Rattus norvegicus)", "testReadout": "IC50", "reported": "28 nM"}
{"compound": "CC(=O)N[C@@H](Cc1ccccc1)C(=O)NCC(C)(C)NC(=O)[C@H](N)Cc1c(C)cc(O)c(C)c1C [Example 41, monohydrochloride]", "testedSystem": "δ opioid receptors (Rattus norvegicus)", "testReadout": "IC50", "reported": "257 nM"}

Consider the additional compound presented here.
Request: Please give the documented IC50 of Cc1cc(O)cc(C)c1C[C@H](N)C(=O)NC(C)(C)CNC(=O)[C@H](Cc1ccccc1)NC(=O)OCc1ccccc1 [Example 10, monohydrochloride]
Response: 4 nM

* * *

target: δ opioid receptors (Rattus norvegicus); test: Opiate Binding Assay, displacement of 3[H]-DSLET from δ receptors; conditions: ratio of mean IC50 values for μ and δ; above 1.0 = more δ specific
Structures can show the parent of a compound that is named as a salt.
testReadout: Mean IC50 μ/δ Ratio

{"molecule": "Cc1cc(O)cc(C)c1C[C@H](N)C(=O)NC(C)(C)CNC(=O)[C@H](Cc1ccccc1)NC(=O)OCc1ccccc1 [Example 10, monohydrochloride]", "Mean IC50 μ/δ Ratio": 0.8}
{"molecule": "Cc1cc(O)cc(C)c1C[C@H](NC(=O)OC(C)(C)C)C(=O)NC(C)(C)CN [Example 4]", "Mean IC50 μ/δ Ratio": 10}
{"molecule": "Cc1cc(O)cc(C)c1C[C@H](N)C(=O)NCC(C)(C)NC(=O)[C@H](Cc1ccccc1)NC(=O)OCc1ccccc1 [Example 26, monohydrochloride]", "Mean IC50 μ/δ Ratio": 0.6}
{"molecule": "CC(=O)N[C@@H](Cc1ccccc1)C(=O)NCC(C)(C)NC(=O)[C@@H](N)Cc1ccc(O)cc1 [Jacobson Compound, reference compound]", "Mean IC50 μ/δ Ratio": 0.3}
{"molecule": "Cc1cc(O)cc(C)c1C[C@H](N)C(=O)NC(C)(C)CNC(=O)[C@H](Cc1ccccc1)NC(=O)NS(=O)(=O)c1ccccc1 [Example 59, monohydrochloride]", "Mean IC50 μ/δ Ratio": 0.4}

Request: Supply Mean IC50 μ/δ Ratio value. Item: Cc1cc(O)cc(C)c1C[C@H](N)C(=O)NCCNC(=O)[C@@H](N)Cc1ccccc1 [Example 24, dihydrochloride]
Response: 0.01

* * *

This listing pairs compounds with measured pIC50.
molecular target: δ opioid receptors (Rattus norvegicus, UniProt P33533); assay: Opiate Binding Assay, displacement of 3[H]-DSLET from δ receptors; details: read-out: Mean IC50 Value, δ; rat forebrain membranes, 3[H]-DSLET 1.0 nM, 37° C., pH 7.4
Counter-ions that a name gives are not always drawn.
pIC50 field: float, defined as -log10 of concentration (mol/L).

{"compound": "Cc1cc(O)cc(C)c1C[C@H](NC(=O)OC(C)(C)C)C(=O)NC(C)(C)CN [Example 4]", "testedSystem": "δ opioid receptors (Rattus norvegicus, UniProt P33533)", "pIC50": 7.00}

Request: Please give measured pIC50 of the following entry: CC(=O)N[C@@H](Cc1ccccc1)C(=O)NCC(C)(C)NC(=O)[C@@H](N)Cc1c(C)cc(OC(C)=O)cc1C [Example 16, hydrochloride]
Response: 9.11

* * *

# reported Mean IC50 μ/δ Ratio; entries follow
biological target: δ opioid receptors (Rattus norvegicus); assay: Opiate Binding Assay, displacement of 3[H]-DSLET from δ receptors; settings: ratio of mean IC50 values for μ and δ; above 1.0 = more δ specific
Structures can show the parent of a compound that is named as a salt.
Write no unit; give the number alone.

Solved cases (5 shown):
{"compound": "CC(=O)N[C@@H](Cc1ccccc1)C(=O)N1CCC(NC(=O)[C@@H](N)Cc2c(C)cc(O)cc2C)C1 (stereo partly shown) [Example 56, monohydrochloride]", "reported": 1.7}
{"compound": "CC(=O)N[C@@H](Cc1ccccc1)C(=O)NCCNC(=O)[C@@H](N)Cc1c(C)cc(O)cc1C [Example 48, hydrochloride]", "reported": 0.1}
{"compound": "CC(=O)N[C@@H](CCc1ccccc1)C(=O)NCC(C)(C)NC(=O)[C@@H](N)Cc1c(C)cc(O)cc1C [Example 18, hydrochloride]", "reported": 0.07}
{"compound": "CC(=O)N[C@H](C(=O)NCC(C)(C)NC(=O)[C@@H](N)Cc1c(C)cc(O)cc1C)c1ccccc1 [Example 20, hydrochloride]", "reported": 0.06}
{"compound": "CC(=O)N[C@@H](Cc1ccccc1)C(=O)NCC(C)(C)NC(=O)[C@H](N)Cc1c(C)cc(O)c(C)c1C [Example 41, monohydrochloride]", "reported": 0.5}

Request: Answer with reported Mean IC50 μ/δ Ratio of Cc1cc(O)cc(C)c1C[C@H](NC(=O)OC(C)(C)C)C(=O)NC(C)(C)CNC(=O)[C@@H](N)Cc1ccccc1 [Example 11, acetic acid salt]
Response: 10

Request: Supply recorded Mean IC50 μ/δ Ratio for CC(=O)N[C@@H](Cc1ccccc1)C(=O)NCC(C)(C)NC(=O)[C@@H](N)Cc1c(C)cc(OC(C)=O)cc1C [Example 16, hydrochloride] here.
Response: 0.7

Request: Give reported Mean IC50 μ/δ Ratio value for CC(=O)N[C@@H](Cc1ccccc1)C(=O)NCC(C)(C)NC(=O)[C@@H](N)Cc1c(C)cc(O)cc1C [Example 47, monohydrochloride]
Response: 1.3

Request: Complete the entry with Mean IC50 μ/δ Ratio for CC(=O)N[C@@H](Cc1ccccc1)C(=O)N1CCN(C(=O)[C@@H](N)Cc2c(C)cc(O)cc2C)CC1 [Example 54, monohydrochloride]
Response: 0.04

Request: Consider the compound Cc1cc(O)cc(C)c1C[C@H](N)C(=O)NCCNC(=O)[C@H](Cc1ccccc1)NC(=O)OCc1ccccc1 [Example 22, monohydrochloride] and give its recorded Mean IC50 μ/δ Ratio.
Response: 0.8
